Entry source: ChEMBL document CHEMBL3988442

Give measured Percent Effect for each item. Keep answers brief.
Species: Homo sapiens
Experiment Summary: To identify inhibition of the IFN signalling (Jak-Stat) pathway via expression of an eGFP reporter gene under the control of an IFN-stimulated response element (ISRE) containing MxA promoter.
Format: functional
Set-up: scale not given: direction of the effect not stated beside the values
Condition Set: 30 µM
One number for each entry, in %.

Look over these answered cases.
* COCCNC(=O)C[C@@H]1COC[C@H]2CN(C(=O)c3cnccn3)C[C@@H]12 | 21.4
* CN(C)C(=O)CN1C[C@@H]2CC[C@H](C1)N(Cc1cc(F)ccc1F)C2 | 15.6
* Cc1ccc2c(n1)N(CCn1cccn1)CCN(C(=O)CC1CC1)C2 | 10.3
* C[C@@H]1CN(C(=O)c2ccc(C#N)nc2)C[C@@]1(O)C1CC1 | 1.76
* O=C(O)c1ccn(-c2ccccc2NS(=O)(=O)c2ccccc2)n1 | 7.84
* CN(C)c1ncnc2c1CCN(CC1CCOC1)CC2 (configuration not stated) | -8.93

Parameters: items (list). Returns: Percent Effect for each item.
1. Cc1ccc(N2CCCN(C(=O)c3cc(Cl)c[nH]3)CC2)nn1
2. CCCNC(=O)Nc1cccc2c1CCN(S(C)(=O)=O)C2
3. CC(=O)N1CCC2(CC1)CC[C@@]1(C(=O)N(C)C)CN(S(C)(=O)=O)C[C@@H]21
4. CCN1CCN(Cc2coc(-c3cccc(F)c3)n2)CC1
5. Cc1nc2n(n1)CC(NCc1cc(Cl)c3c(c1)OCCCO3)CC2 (configuration not stated)

result:
[2.32, -3.94, 28.4, -3.8, 6.53]

* * *

Target Entity: Ubiquitin-activating enzyme e1, putative (Leishmania donovani (strain BPK282A1)) (UniProt E9BSI1)
Sequence (E9BSI1 as listed by the source): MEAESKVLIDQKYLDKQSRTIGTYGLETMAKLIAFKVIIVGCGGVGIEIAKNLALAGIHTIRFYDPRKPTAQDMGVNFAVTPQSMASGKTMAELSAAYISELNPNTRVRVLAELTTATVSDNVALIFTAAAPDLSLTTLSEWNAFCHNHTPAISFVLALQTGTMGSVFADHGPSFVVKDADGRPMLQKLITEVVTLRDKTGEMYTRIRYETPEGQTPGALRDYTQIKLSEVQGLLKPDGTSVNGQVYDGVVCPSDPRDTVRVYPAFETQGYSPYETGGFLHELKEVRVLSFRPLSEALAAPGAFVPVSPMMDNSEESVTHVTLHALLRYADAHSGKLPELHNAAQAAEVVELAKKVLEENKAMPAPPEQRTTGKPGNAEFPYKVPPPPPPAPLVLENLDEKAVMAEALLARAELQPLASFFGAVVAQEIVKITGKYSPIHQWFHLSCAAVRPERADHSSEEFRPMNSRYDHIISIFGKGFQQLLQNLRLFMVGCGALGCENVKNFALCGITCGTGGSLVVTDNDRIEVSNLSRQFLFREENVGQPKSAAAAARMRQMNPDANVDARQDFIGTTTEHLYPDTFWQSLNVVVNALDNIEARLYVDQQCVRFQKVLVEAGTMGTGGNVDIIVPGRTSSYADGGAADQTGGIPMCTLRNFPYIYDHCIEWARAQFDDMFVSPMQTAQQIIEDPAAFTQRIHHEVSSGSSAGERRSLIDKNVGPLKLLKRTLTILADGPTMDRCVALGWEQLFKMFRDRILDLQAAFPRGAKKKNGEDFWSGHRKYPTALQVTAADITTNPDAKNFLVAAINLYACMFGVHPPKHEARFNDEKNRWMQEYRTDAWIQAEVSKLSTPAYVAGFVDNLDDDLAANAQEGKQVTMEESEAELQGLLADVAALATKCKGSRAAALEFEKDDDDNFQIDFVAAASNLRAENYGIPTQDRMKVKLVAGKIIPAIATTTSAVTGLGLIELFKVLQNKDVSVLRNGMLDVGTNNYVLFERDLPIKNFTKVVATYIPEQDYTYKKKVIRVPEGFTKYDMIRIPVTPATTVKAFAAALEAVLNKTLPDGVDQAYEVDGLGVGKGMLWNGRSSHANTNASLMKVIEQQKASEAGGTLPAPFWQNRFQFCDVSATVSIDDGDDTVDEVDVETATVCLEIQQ
Experiment Summary: Leishmania donovani Ubiquitin Activating Enzyme (LdE1)
Assay type: functional
Set-up: scale not given: direction of the effect not stated beside the values
Condition Set: 30 µM
Results with a measured potency or affinity are listed apart.
Attribute Measured: Percent Effect (%)
Numbers only, in %.

Look over these answered cases.
* Cc1nn(C)c(N(C)C)c1CNCC(O)COc1ccc(F)cc1 (stereo unspecified) | 2.74
* Cc1cc(C)nc(CCNC(=O)[C@H]2CNC[C@@H](C(=O)N3CCCC3)C2)n1 | 0
* COc1ccccc1CNC(=O)Cn1ncc2c1c(C)nn2C | 6.67
* Cc1cnn(CC2CN(Cc3nc(-c4ccoc4)no3)CCO2)c1 (stereo unspecified) | 8.11

Parameters: items (list). Returns: Percent Effect for each item.
1. Cc1ccc(CN2C[C@@H]3COC[C@H](NS(C)(=O)=O)[C@@H]3C2)o1
2. CC(c1ccc(Cl)cc1)N1CCN(CCNS(C)(=O)=O)CC1 (stereo unspecified)

result:
1. 13.3
2. -2.7

* * *

Target Entity: Chromo domain-containing protein 1 (Saccharomyces cerevisiae (strain ATCC 204508 / S288c) (Baker's yeast)) (UniProt P32657)
Sequence (P32657 whole entry, the tested form may be a part): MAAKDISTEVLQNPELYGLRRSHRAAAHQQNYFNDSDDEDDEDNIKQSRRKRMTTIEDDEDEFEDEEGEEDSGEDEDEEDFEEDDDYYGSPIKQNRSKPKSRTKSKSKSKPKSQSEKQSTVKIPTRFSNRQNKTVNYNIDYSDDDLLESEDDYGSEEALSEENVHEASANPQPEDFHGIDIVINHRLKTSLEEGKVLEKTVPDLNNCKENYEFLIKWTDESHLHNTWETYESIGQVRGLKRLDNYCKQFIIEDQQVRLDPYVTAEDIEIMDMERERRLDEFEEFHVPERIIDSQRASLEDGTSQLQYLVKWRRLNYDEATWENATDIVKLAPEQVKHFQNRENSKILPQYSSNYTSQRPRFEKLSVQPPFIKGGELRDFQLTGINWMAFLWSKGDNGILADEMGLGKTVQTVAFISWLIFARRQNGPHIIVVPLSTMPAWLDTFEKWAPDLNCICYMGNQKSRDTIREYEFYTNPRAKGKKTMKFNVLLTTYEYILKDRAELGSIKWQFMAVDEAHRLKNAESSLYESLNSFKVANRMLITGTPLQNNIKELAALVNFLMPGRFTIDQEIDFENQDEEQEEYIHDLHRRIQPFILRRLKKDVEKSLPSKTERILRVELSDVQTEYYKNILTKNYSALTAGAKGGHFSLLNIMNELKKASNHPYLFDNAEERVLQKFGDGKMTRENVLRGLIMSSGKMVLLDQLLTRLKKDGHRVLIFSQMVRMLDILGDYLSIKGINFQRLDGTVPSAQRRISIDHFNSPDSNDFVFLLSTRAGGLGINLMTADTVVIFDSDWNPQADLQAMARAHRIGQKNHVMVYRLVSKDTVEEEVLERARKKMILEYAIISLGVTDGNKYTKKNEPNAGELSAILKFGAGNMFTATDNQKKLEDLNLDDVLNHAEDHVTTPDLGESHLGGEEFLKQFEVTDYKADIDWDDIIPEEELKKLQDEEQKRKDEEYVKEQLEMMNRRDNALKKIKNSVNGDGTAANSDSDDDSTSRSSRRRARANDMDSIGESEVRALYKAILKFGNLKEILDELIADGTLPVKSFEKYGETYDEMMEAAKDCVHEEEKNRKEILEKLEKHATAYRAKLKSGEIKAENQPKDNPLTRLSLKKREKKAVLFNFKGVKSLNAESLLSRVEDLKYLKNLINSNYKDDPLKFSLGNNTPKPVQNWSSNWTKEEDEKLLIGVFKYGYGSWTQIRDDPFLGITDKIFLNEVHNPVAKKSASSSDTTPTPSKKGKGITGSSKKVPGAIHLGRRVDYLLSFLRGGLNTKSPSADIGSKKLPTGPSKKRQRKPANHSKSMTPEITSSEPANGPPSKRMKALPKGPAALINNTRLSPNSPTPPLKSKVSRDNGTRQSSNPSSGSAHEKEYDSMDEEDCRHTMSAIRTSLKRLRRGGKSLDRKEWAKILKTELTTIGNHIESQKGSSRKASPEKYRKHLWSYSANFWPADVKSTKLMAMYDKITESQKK
Experiment Summary: ScCHD-1 Enzyme Inhibition Assay; further: in the data most compounds retested in dose-response had high values
Type: functional
Parameters: scale not given: direction of the effect not stated beside the values
Condition Set: 30 µM
Give measured Percent Effect for each item. Keep answers brief.
Answers are plain numbers, in %.

Look over these answered cases.
• Cc1nn(C)c(N2CCOCC2)c1CNC(C)c1ccco1 (configuration not stated) = -8.31
• COc1ccc(-n2ccc(C(=O)N3CCN(C)CC3C)n2)cc1 (configuration not stated) = -5.54
• Cc1n[nH]c(C2CN(C(=O)c3cc(Cl)c[nH]3)CCO2)n1 (configuration not stated) = 0.543
• c1ncn(CC2CCCCN2Cc2noc(C3CC3)n2)n1 (configuration not stated) = -12.9
• CC(C)N1CCC(Cc2cc(-c3cccc(C(=O)O)c3)ncn2)C1 (configuration not stated) = 20.8
• Cn1ccc(CN2CCC(CCc3ccc(O)cc3)CC2)cc1=O = -10.1
• Cn1c(C(F)(F)F)nn(CCNC(=O)c2cnc3ccccc3n2)c1=O = -3.18
• CCOCC1CN(C(=O)CS(C)(=O)=O)Cc2cnn(C)c21 (configuration not stated) = -6.62

Parameters: items (list). Returns: Percent Effect for each item.
1. O=C(NCC1CCOC1)c1cc(-c2cccc(Cl)c2)on1 (configuration not stated)
2. CSCCCN1CC[C@@H](NC(=O)c2cnccn2)[C@H](O)C1
3. Cc1cnn(CC2CCCN2Cc2ncc(-c3ccccc3)o2)c1 (configuration not stated)

result:
1. -5.69
2. 1.39
3. -6.8

query: Fill in Percent Effect for record Cc1nc(C)n(CC2CCCN2CC(=O)Nc2ccnn2C(C)C)n1 (configuration not stated)
result: -6.21
